Origin of the recorded values: PubChem BioAssay AID1259407

Test system: CCRIS mutagenicity, Ames/micronucleus/aberration tests
test-details: CCRIS mutagenicity studies
cond: Test System: AMES SALMONELLA TYPHIMURIUM; Strain/Indicator: TA100; Metabolic Activation: NONE; Method: PREINCUBATION
The source made the active and inactive calls. The rule behind the calls is not given here.
Give your call using only these classes: YES for active, NO for inactive

Here are 8 molecules together with their reported answers.
molecule	answer-label
CC(COc1ccccc1)N(CCCl)Cc1ccccc1 (centres undefined)	YES
CNc1ccc2ncc(-c3ccccc3)nc2c1C	NO
Oc1cc(Cl)ccc1Cl	NO
FC(F)(F)C(Cl)Br (centres undefined)	NO
CCN1CCOCC1	NO
Cc1cc2ccccc2c2ccc3ccccc3c12	NO
C[N+]1=CC=C(c2ccccc2)CC1	YES
CC(C)(OOC(C)(C)c1ccccc1)c1ccccc1	NO

// param item: O=[N+]([O-])c1cc(O)c2ccc3cccc4ccc1c2c34 ; yields the recorded call YES

GET /call?item= CC(=O)OCCC(C)C returns the recorded outcome of this test. NO

Per the assay record, what outcome was assigned to Cc1ccc2c(c1O)C(=O)c1ccccc1C2=O ? NO

GET /call?item= CC(C)(C)C(=O)C(Oc1ccc(Cl)cc1)n1ccnc1 (centres undefined) returns the recorded outcome of this test. NO

Kindly provide the recorded test outcome for the following molecule: c1ccc(CCC2CO2)cc1 (centres undefined) YES

Name the outcome recorded for COc1ccc(C=O)cc1 in the assay. NO

Any idea what this test logged for S=c1[nH]c2ccccc2[nH]1 ? NO

Please state the recorded outcome for this molecule: CCS(=O)CCSP(=O)(OC)OC (centres undefined) NO

Short answer needed: outcome of this test for Nc1nc2ccccc2[nH]1 ? NO

How was CN(C)c1ccc(N=Nc2ccccc2)cc1 classified in this test? NO

# lookup: test call for N#CCC#N NO

====

Tested on: CCRIS mutagenicity, Ames/micronucleus/aberration tests
test-details: CCRIS mutagenicity studies
cond: Test System: AMES SALMONELLA TYPHIMURIUM; Strain/Indicator: TA102; Metabolic Activation: NONE; Method: PREINCUBATION
Calls of active or inactive are those of the source. How the calls were made is not given here.
// classify into y (active), n (inactive)

molecule	answer-label
Cc1ccc2nc3c(ccc4ccccc43)c(C)c2c1	y
CC(C)CC=O	n
CCCCCC(=O)O	n
CNNC	n
C=CCOC(=O)CCCCC	n

Which result was noted for this molecule in the test: c1ccncc1 n

====

System: CCRIS mutagenicity, Ames/micronucleus/aberration tests
test-details: CCRIS mutagenicity studies
cond: Test System: AMES SALMONELLA TYPHIMURIUM; Strain/Indicator: TA100; Metabolic Activation: RAT, LIVER, S-9, AROCLOR 1254; Method: STANDARD PLATE
The source made the active and inactive calls. How the calls were made is not given here.
Outcome (select one): TRUE = active, FALSE = inactive

molecule	answer-label
OCc1ccc2nc3c(ccc4ccccc43)c(CO)c2c1	TRUE
C[n+]1cccc(C(=O)[O-])c1	FALSE
Nc1nc2ccc([N+](=O)[O-])cc2s1	TRUE

Now, please, on to the next molecule.
What classification did COC(=O)CCC(=O)OC end up with in this test? FALSE

====

Test system: CCRIS mutagenicity, Ames/micronucleus/aberration tests
test-details: CCRIS mutagenicity studies
cond: Test System: AMES SALMONELLA TYPHIMURIUM; Strain/Indicator: TA100; Metabolic Activation: HAMSTER, LIVER, S-9, AROCLOR 1254; Method: PREINCUBATION
Activity calls are given as the source filed them. No rule for the calls is given here.
Allowed answers: active, inactive

Use these answered entries as a reference point.
molecule	answer-label
CC[C@H]1OC(=O)[C@H](C)[C@@H](O[C@H]2C[C@@](C)(OC)[C@@H](O)[C@H](C)O2)[C@H](C)[C@@H](O[C@@H]2O[C@H](C)C[C@H](N(C)C)[C@H]2O)[C@](C)(O)C[C@@H](C)C(=O)[C@H](C)[C@@H](O)[C@]1(C)O	inactive
Clc1ccccc1	inactive
CC(O)CO (configuration not stated)	inactive
O=NN1CCCCC1	active
C[Si](Cl)Cl	inactive

Outcome logged for C1CC2OC2CC1C1CO1 (configuration not stated) in this assay: active

Any idea what this test logged for C=CC(=O)NC(C)(C)CC(C)=O ? inactive

Hello, I am checking results. What call was entered for Oc1ccc(Cl)cc1Cl ? inactive

Lab log entry: CCN(CC)c1ccc2c(C)cc(=O)oc2c1 — outcome as called in the assay? inactive

What call does the record list for CC1(C)S[C@@H]2[C@H](NC(=O)[C@H](N)c3ccccc3)C(=O)N2[C@H]1C(=O)O ? inactive

Could you please tell me the result logged for CC(=O)OCC(O)CO (configuration not stated) in this assay? inactive

Field: outcome | Entry: COc1ccc(O)cc1 inactive

====

System: CCRIS mutagenicity, Ames/micronucleus/aberration tests
test-details: CCRIS mutagenicity studies
cond: Test System: AMES SALMONELLA TYPHIMURIUM; Strain/Indicator: TA98; Metabolic Activation: RAT, LIVER, S-9, AROCLOR 1254; Method: PREINCUBATION
The source made the active and inactive calls. No rule for the calls is given here.
endpoint: mutagenic call

smiles-input	mutagenic call
O=[N+]([O-])c1ccc(Nc2ccc(Cl)cc2)cc1	active; positive
O=C1c2ccccc2C(=O)c2c1cc(O)c(CO)c2O	active; positive
Nc1cc2c3ccccc3ccc2c2ccccc12	active; positive
Nc1nc2ccccc2[nH]1	active; positive
O=[N+]([O-])c1cc(O)c2ccc3cccc4ccc1c2c34	active; positive

Quick note, mutagenic call for CCN(CC)c1ccc2c(C)cc(=O)oc2c1 landed at inactive; negative

The compound listed as Cc1ccc(C=O)cc1 has a reported mutagenic call of inactive; negative

The compound identified as Cc1ccco1 registered its mutagenic call at inactive; negative

====

Test system: CCRIS mutagenicity, Ames/micronucleus/aberration tests
test-details: CCRIS mutagenicity studies
cond: Test System: AMES SALMONELLA TYPHIMURIUM; Strain/Indicator: TA98; Metabolic Activation: RAT, LIVER, S-9, AROCLOR 1254 (30%); Method: PREINCUBATION
Activity calls are given as the source filed them. How the calls were made is not given here.
Outcomes you can answer with include only these: active, inactive

Worked set:
smiles-input	assay-target	answer-label
CC(=O)NBr	CCRIS mutagenicity, Ames/micronucleus/aberration tests	inactive
O=NO	CCRIS mutagenicity, Ames/micronucleus/aberration tests	inactive
Clc1ccc(C(Cl)(Cl)Cl)c(Cl)c1	CCRIS mutagenicity, Ames/micronucleus/aberration tests	active

How was Cc1ccco1 classified in this test? inactive

// return assay outcome for S=c1[nH]c2ccccc2[nH]1 inactive

// outcome(item) with item = O=[N+]([O-])c1ccccc1CCO inactive

Recorded test outcome, item O=[N+]([O-])c1c2ccccc2cc2ccccc12 active

Would you mind telling me which call this test gave CCOC(N)=O ? inactive

I would be grateful if you could indicate the recorded call for CCCCCCCC(=O)O . inactive

In this assay, the call recorded for CCCCCCC=O was what? inactive

What was the test verdict on CCC(C)(C)C ? inactive

====

Tested on: CCRIS mutagenicity, Ames/micronucleus/aberration tests
test-details: CCRIS mutagenicity studies
cond: Test System: AMES SALMONELLA TYPHIMURIUM; Strain/Indicator: TA1535; Metabolic Activation: NONE; Method: PREINCUBATION
Calls of active or inactive are those of the source. The rule behind the calls is not given here.
Returns: one label drawn from active, inactive

The following molecules have reported results that may help.
molecule	answer-label
O=C1CSC(=S)N1	inactive
O=C(OCC1CO1)c1cccc(C(=O)OCC2CO2)c1 (stereo unspecified)	active
CCOP(=S)(OCC)SCSC(C)(C)C	inactive
CCCC(=O)O[C@H]1[C@H](C)O[C@@H](O[C@H]2[C@H](N(C)C)[C@@H](O)[C@H](O[C@H]3[C@@H](CC=O)C[C@@H](C)[C@@H](O)/C=C/C=C/C[C@@H](C)OC(=O)C[C@@H](O)[C@@H]3OC)O[C@@H]2C)C[C@@]1(C)OC(=O)CC	inactive
O=c1[nH]c(=O)n(Cl)c(=O)n1Cl	inactive

What did the test return for O=c1cn[nH]c(=O)[nH]1 ? inactive

// outcome(item) with item = CC(C)(C#N)C(C)(C)C#N inactive

Please state the recorded outcome for this molecule: CCCCCCc1ccc(-c2ccc(C#N)cc2)cc1 inactive

Write down the call the test reported for this molecule. Item: CC[C@H]1OC(=O)[C@H](C)[C@@H](O[C@H]2C[C@@](C)(OC)[C@@H](O)[C@H](C)O2)[C@H](C)[C@@H](O[C@@H]2O[C@H](C)C[C@H](N(C)C)[C@H]2O)[C@](C)(O)C[C@@H](C)C(=O)[C@H](C)[C@@H](O)[C@]1(C)O inactive

Give the logged outcome of this assay for the following molecule: CC(C)(OOC(C)(C)c1ccccc1)c1ccccc1 inactive

Entry CCCCCc1cc(O)c2c(c1)OC(C)(C)[C@@H]1CCC(C)=C[C@@H]21 : call = ? inactive
